biological target: Tyrosine-protein kinase SYK (Homo sapiens); assay: inhibition of SYK
pIC50: −log10 of the molar value.
Measured Parameter: pIC50

Request: Give recorded pIC50 with Tyrosine-protein kinase SYK (Homo sapiens) for the following compound: COc1ccc(Cn2ncc(NC(=O)c3cc(NC(=O)Nc4ccc(Cl)c(C(F)(F)F)c4)ccc3C)c2N)cc1
Response: > 9.00

----------
target: BDNF/NT-3 growth factors receptor (Homo sapiens)
Sequence (Q16620 whole entry): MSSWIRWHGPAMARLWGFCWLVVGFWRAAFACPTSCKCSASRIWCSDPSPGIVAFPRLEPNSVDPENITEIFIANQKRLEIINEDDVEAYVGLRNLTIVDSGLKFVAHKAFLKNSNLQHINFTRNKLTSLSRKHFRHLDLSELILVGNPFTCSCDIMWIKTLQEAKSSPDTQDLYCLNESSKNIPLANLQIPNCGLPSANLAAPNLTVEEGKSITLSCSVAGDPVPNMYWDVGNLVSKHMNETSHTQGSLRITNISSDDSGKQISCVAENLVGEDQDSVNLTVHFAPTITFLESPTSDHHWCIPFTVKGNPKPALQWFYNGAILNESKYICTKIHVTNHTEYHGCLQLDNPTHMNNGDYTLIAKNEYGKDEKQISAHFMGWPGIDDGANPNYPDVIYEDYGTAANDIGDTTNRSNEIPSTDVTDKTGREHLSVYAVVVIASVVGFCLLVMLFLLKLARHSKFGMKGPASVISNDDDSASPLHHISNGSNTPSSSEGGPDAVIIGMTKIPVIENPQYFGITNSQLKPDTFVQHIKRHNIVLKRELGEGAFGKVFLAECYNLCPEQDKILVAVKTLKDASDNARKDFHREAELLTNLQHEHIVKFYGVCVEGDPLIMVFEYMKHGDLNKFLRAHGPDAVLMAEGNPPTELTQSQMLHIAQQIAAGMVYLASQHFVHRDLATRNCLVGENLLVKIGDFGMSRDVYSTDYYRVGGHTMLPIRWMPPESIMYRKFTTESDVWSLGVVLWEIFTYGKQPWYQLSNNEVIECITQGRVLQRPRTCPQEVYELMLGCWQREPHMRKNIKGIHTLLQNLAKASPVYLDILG
pIC50: −log10 of the molar value.
Measured Parameter: pIC50

Request: Give recorded pIC50 with BDNF/NT-3 growth factors receptor (Homo sapiens) for the following compound: COc1ccc(Cn2ncc(NC(=O)c3cc(NC(=O)Nc4ccc(Cl)c(C(F)(F)F)c4)ccc3C)c2N)cc1
Response: > 9.00
